observation-type: melting point (°C)

CCc1nc2c(C)c(C#N)c(C)nc2n1-c1ccc(CCNC(=O)NS(=O)(=O)c2ccc(C)cc2)cc1 | 133

a = CCc1nc2c(C)cc(C)nc2n1-c1ccc(CC(C)NC(=O)NS(=O)(=O)c2ccc(C)cc2)cc1 (stereo not shown)
b = Cc1ccc(S(=O)(=O)NC(=O)NCCc2ccc(-n3c(C(C)O)nc4cc(C(F)(F)F)c(Cl)cc43)cc2)cc1 (stereo not shown)
Challenge: Of a and b , which carries the smaller reported melting point figure? Pick one and reply with its label.
Response given: a
(a: 128 °C, b: 220 °C)

###

observation-type: melting point (°C)

CCc1nc2c(Cl)nc(C)cc2n1-c1ccc(CCNC(=O)NS(=O)(=O)c2ccc(C)cc2)cc1 | 163
CCc1nc2cc(C(C)O)ccc2n1-c1ccc(CCNC(=O)NS(=O)(=O)c2ccc(C)cc2)cc1 (stereo not shown) [Example 345] | 190
CCc1nc2cc(C(F)(F)F)c(Cl)cc2n1-c1ccc(CCOC(=O)NS(=O)(=O)c2cn(C)c(C)n2)cc1 [Example 294] | 221.2
CC(=O)c1nc2cc(C(F)(F)F)c(Cl)cc2n1-c1ccc(CCNC(=O)NS(=O)(=O)c2ccc(C)cc2)cc1 [Example 368] | 225
CCc1nc2cc(C(F)(F)F)c(Cl)cc2n1-c1ccc(CCOC(=O)NS(=O)(=O)c2cn(C)cn2)cc1 [Example 292] | 204.3
CCc1nc2c(C)c(NS(C)(=O)=O)cnc2n1-c1ccc(CCNC(=O)NS(=O)(=O)c2ccc(C)cc2)cc1 | 166
CCc1nc2cc(C(F)(F)F)c(Cl)cc2n1-c1ccc(CCOC(=O)NS(=O)(=O)c2cccc3c(N(C)C)cccc23)cc1 | 203.4
